assayed_target: ARS2^147-871 (human)
assay_info: ITC
pKd: −log10 of the molar value.
measured_parameter: pKd

(I) MBP-ZC3H18^117-258 (domain or fragment) SSVTRELDEHELDYDEEVPEEPAPAVQEDEAEKAGAEDDEEKGEGTPREEGKAGVQSVGEKESLEAAKEKKKEDDDGEIDDGEIDDDDLEEGEVKDPSDRKVRPRPTCRFFMKGNCTWGMNCRFIHPGVNDKGNYSLITKAD
(II) KESLEAAKEKKKEDDDGEIDDGEIDDDDLEEGEVKDPSD (domain or fragment) [MBP-ZC3H18^177-215]
Prompt: So which one has the bigger pKd here, I or II ? // respond with label for picked entry
Completion: I
